// reported inhibition at 1 µM for each item listed
Tested on: Vaccinia virus
Assay: Anti viral activity against vaccinia virus in CV-1 (monkey kidney) cells at 1 uM.
Assay type: functional
Conditions: Orthopoxvirus vaccinia, CV-1, in Primates

Compound	System	inhibition at 1 µM
CC(C)[C@@H](C(=O)N[C@H]1c2ccccc2CC1O)[C@@H](O)[C@H](O)C(CC1CCCCC1)NC(=O)c1ccccc1OCSc1ccccc1 (stereo partly specified)	Vaccinia virus	0%
CCC(C)[C@H](NC(=O)[C@H](C(C)C)[C@@H](O)[C@H](O)C(CC1CCCCC1)NC(=O)c1ncccc1OCSc1ccccc1)C(=O)NCc1nc2ccccc2[nH]1 (stereo partly specified)	Vaccinia virus	0%
CCC(C)[C@H](NC(=O)[C@H](C(C)C)[C@@H](O)[C@H](O)C(CC1CCCCC1)NC(=O)c1ccccc1OCCOCCOCCOC)C(=O)NCc1nc2ccccc2[nH]1 (stereo partly specified)	Vaccinia virus	65%
CCC(C)[C@H](NC(=O)[C@H](C(C)C)[C@@H](O)[C@H](O)C(CC1CCCCC1)NC(=O)c1ncccc1OCCOCCOCCOC)C(=O)NCc1nc2ccccc2[nH]1 (stereo partly specified)	Vaccinia virus	0%
CCC(C)[C@H](NC(=O)[C@H](C(C)C)[C@@H](O)[C@H](O)C(CC1CCCCC1)NC(=O)c1ccccc1OCSc1ccccc1)C(=O)NCc1nc2ccccc2[nH]1 (stereo partly specified)	Vaccinia virus	86%
CC(C)[C@@H](C(=O)N[C@H]1c2ccccc2CC1O)[C@@H](O)[C@H](O)C(CC1CCCCC1)NC(=O)c1ncccc1OCSc1ccccc1 (stereo partly specified)	Vaccinia virus	0%
